# experimental_details: Crossover study of relative bioavailability of tablet versus capsule (005 Study): plasma PK
# Format: in vivo, human
# cond: human, plasma, po, 25 mg, single oral 25 mg Capsule, healthy adults; read-out: t1/2 Mean(SD) (converted)
value_type: half-life

{"smiles_text": "Cc1ncc(OC[C@@]2(c3cccc(F)c3)C[C@H]2C(=O)Nc2ccc(F)cn2)c(C)n1", "result": "57.4 h"}

* * *

# experimental_details: Single daily dose PK in human subjects (summary statements)
# Assay type: in vivo
# cond: plasma, oral, single 5 mg daily dose, read-out: mean time to maximum plasma concentration (tmax)

{"smiles_text": "Cc1ncc(OC[C@@]2(c3cccc(F)c3)C[C@H]2C(=O)Nc2ccc(F)cn2)c(C)n1", "Tmax": "1 to 2 h"}
